- SYSTEM UNDER TEST: HLA-A*68:23
- EXPERIMENT SUMMARY: IEDB peptide-MHC binding, purified MHC/competitive/fluorescence; filed as Kd, often an IC50 or EC50 that approximates it; bounds were set here for any values at or beyond the usual limits of such assays
- CONDITION DETAILS: source organism: Salmonella enterica subsp. enterica serovar Typhi
MEASURE: pKd
pKd field: float, defined as -log10 of concentration (mol/L).

input: # pKd lookup, item SVIDHIHYM
output: 9.70

====

- SYSTEM UNDER TEST: HLA-B*46:01
- EXPERIMENT SUMMARY: IEDB peptide-MHC binding, purified MHC/competitive/fluorescence; filed as Kd, often an IC50 or EC50 that approximates it; bounds were set here for any values at or beyond the usual limits of such assays
- CONDITION DETAILS: source organism: Giardia intestinalis ATCC 50581
pKd: −log10 of the molar value.
MEASURE: pKd

input: # pKd lookup, item GLYLYRFHV
output: ≤ 4.70

====

- SYSTEM UNDER TEST: HLA-A*03:01
- EXPERIMENT SUMMARY: IEDB peptide-MHC binding, purified MHC/direct/fluorescence; filed as Kd, often an IC50 or EC50 that approximates it; bounds were set here for any values at or beyond the usual limits of such assays
- CONDITION DETAILS: source organism: Aggregatibacter actinomycetemcomitans
MEASURE: Kd

input: # Kd lookup, item KYDDRIQSQ
output: ≥ 20 µM

====

- SYSTEM UNDER TEST: HLA-A*26:01
- EXPERIMENT SUMMARY: IEDB peptide-MHC binding, purified MHC/direct/fluorescence; filed as Kd, often an IC50 or EC50 that approximates it; bounds were set here for any values at or beyond the usual limits of such assays
- CONDITION DETAILS: source organism: Bacillus anthracis
MEASURE: pKd
pKd field: float, defined as -log10 of concentration (mol/L).

input: # pKd lookup, item FIFGKMGAG
output: 5.27

====

- SYSTEM UNDER TEST: HLA-A*26:01
- EXPERIMENT SUMMARY: IEDB peptide-MHC binding, purified MHC/competitive/fluorescence; filed as Kd, often an IC50 or EC50 that approximates it; bounds were set here for any values at or beyond the usual limits of such assays
- CONDITION DETAILS: source organism: Orthohantavirus tulaense
pKd: −log10 of the molar value.
MEASURE: pKd

input: # pKd lookup, item MSRKLHRYI
output: ≤ 4.70

====

- SYSTEM UNDER TEST: HLA-B*40:01
- EXPERIMENT SUMMARY: IEDB peptide-MHC binding, purified MHC/competitive/radioactivity; filed as Kd, often an IC50 or EC50 that approximates it; bounds were set here for any values at or beyond the usual limits of such assays
- CONDITION DETAILS: source organism: Mammarenavirus juninense
MEASURE: pKd
pKd field: float, defined as -log10 of concentration (mol/L).

input: # value lookup — system HLA-B*40:01, readout pKd, item EELSMMYESL
output: 6.05

input: # value lookup — system HLA-B*40:01, readout pKd, item KDTPGGYCL
output: 4.92

====

- SYSTEM UNDER TEST: HLA-B*08:01
- EXPERIMENT SUMMARY: IEDB peptide-MHC binding, purified MHC/direct/fluorescence; filed as Kd, often an IC50 or EC50 that approximates it; bounds were set here for any values at or beyond the usual limits of such assays
- CONDITION DETAILS: source organism: Yersinia pestis Nepal516
MEASURE: Kd

input: # Kd lookup, item LSEEIGLDL
output: ≥ 20 µM
